Where do the numbers come from? From BindingDB's records for doi:10.7270/Q2ZC817P.

- TGT: Sphingosine 1-phosphate receptor 1 (Homo sapiens)
- Sequence (P21453 whole entry): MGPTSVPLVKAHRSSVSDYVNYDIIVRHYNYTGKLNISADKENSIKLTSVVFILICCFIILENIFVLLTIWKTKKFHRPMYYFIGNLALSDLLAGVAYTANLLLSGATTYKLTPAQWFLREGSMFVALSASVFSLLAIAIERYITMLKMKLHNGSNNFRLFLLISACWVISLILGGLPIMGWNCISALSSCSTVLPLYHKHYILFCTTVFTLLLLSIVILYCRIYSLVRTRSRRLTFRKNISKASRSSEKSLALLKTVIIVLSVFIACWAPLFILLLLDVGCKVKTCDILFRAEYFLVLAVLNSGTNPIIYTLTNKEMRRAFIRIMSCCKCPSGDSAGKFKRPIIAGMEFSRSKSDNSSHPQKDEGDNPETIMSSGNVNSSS
- ASSAY PROTOCOL: potentiators of S1P1 agonist response, dose response, cell-based, potentiator mode, 60K MLSMR set (AID 466)
- ASSAY CONTEXT: inactive by the depositor's call
PARAMETER: pEC50
Bear in mind: pEC50 is minus log10 of a mol/L concentration; give just that figure.

# input molecule: O=C(C1CC1)N1CCc2cc(S(=O)(=O)NCC3COc4ccccc4O3)ccc21 (stereo not given) ; wanted: its pEC50
4.86

Give the measured pEC50 of CC1=CC(C)(C)Nc2ccc(OC(=O)c3cccnc3)cc21 .
4.96

Please look up its pEC50: CN1c2ccccc2C(C)(C)C12C=Cc1cc(O)ccc1O2 (stereo not given)
4.91

Entry C=CCOC(=O)c1[nH]c2c(c1C)C(=O)CC(c1cc(OC)c(OC)c(OC)c1)C2 (stereo not given) has what pEC50?
4.95

Requested field: pEC50. Item: COc1ccccc1-c1nc(-c2ccc(Br)cc2)no1
5.00
